test system: DU-145 prostate; assay: NCI-60 one-dose screen, 48 h; settings: 10 µM unless noted
This is part of a sample that, as a whole, favours compounds with a hit. Of some 83,000 tested, about 20% had one in any assay. Active and inactive are the calls of the source. The calls were made as follows: active = growth percent below 10; inactive = the rest.
Allowed answers: TRUE for active, FALSE for inactive

Recorded results for 7 compounds are shown here.
O=C(CSc1nc2sc3c(c2c(=O)n1-c1ccc(Cl)cc1)CCCC3)NNC(=O)c1ccc(Br)cc1 | FALSE
CC(C)C[C@H](NC(=O)[C@@H]1CCCCCCCCCCC(=O)N[C@@H](CC(=O)N2CCC[C@@H]2C2CCCC2)C(=O)N1)B(O)O | TRUE
Nc1nn2c(-c3cc4cc(Br)ccc4oc3=O)ccnc2c1N=Nc1ccc(Br)cc1 | FALSE
NS(=O)(=O)c1ccc(N2N=C(c3ccc(NC(=O)Nc4ccccc4)cc3)CC2c2ccc(Br)cc2)cc1 (stereo not drawn) | TRUE
CC[C@]12C=CCN3CC[C@]4(C(=C(C(=O)OC)C1)Nc1cc(OC)c([C@@H]5[C@H]6O[C@H]6[C@@]6(CC)CC(C(=O)OC)=C7Nc8cc(O)ccc8[C@@]78CCN5[C@@H]68)cc14)[C@@H]32 | FALSE
CN(C)c1nc(NCCNS(=O)(=O)c2ccc(C3=Nc4c(N)nc(N)nc4NC(c4ccc(Cl)cc4)C3)cc2)nc(N2CCOCC2)n1 (stereo not drawn) | FALSE
COc1ccc(-c2nc3ccc(-c4nnc(SCc5ccccc5)o4)cc3[nH]2)cc1 | FALSE

# fetch the recorded call for "COc1cc(NC(=O)CSc2nnc(-c3ccc(-c4nc5ccc(Cl)cc5[nH]4)cc3)o2)cc(OC)c1OC" here
FALSE

###

tested on: SF-295 CNS; test: NCI-60 one-dose screen, 48 h (100 = growth as untreated, 0 = no growth, -100 = all killed); details: 10 µM unless noted
About 83,000 compounds went through this panel and 20% of them were active in at least one assay; those are over-represented in the sample as a whole.
measurementKind: growth (%)
Output spec: scalar in %, unitless text.

Below, each entry is followed by its recorded growth result.
Cc1cccc(C)c1Nc1nnc(-c2c[nH]c3ccccc23)o1 | 96
COc1cncc(-c2ccc3ncnc(N4CCc5ccc(Cl)cc54)c3c2)c1 | 20.3

Return reported growth; argument: "CN(C)c1nc(NCCNS(=O)(=O)c2ccc(C(=O)/C=C/c3ccc(F)cc3)cc2)nc(N2CCOCC2)n1"
79.2

###

Recorded measurements of growth, one per entry
tested on: EKVX NSCLC; assay: NCI-60 one-dose screen, 48 h (100 = growth as untreated, 0 = no growth, -100 = all killed); details: 10 µM
This is part of a sample that, as a whole, favours compounds with a hit. Of some 83,000 tested, about 20% had one in any assay.
Output spec: scalar in %, unitless text.

CC/C(=C(\c1ccc(O)cc1)c1ccc(OCCNC)cc1)c1ccccc1 | 96.4

Return reported growth; argument: "CC/C(=C(\c1ccc(O)cc1)c1ccc(OCCN(C)C(=O)CCOCCNC(=O)c2ccc3c(c2)CN([C@@H]2CCC(=O)NC2=O)C3=O)cc1)c1ccccc1"
89.1

Return reported growth; argument: "CC/C(=C(\c1ccc(O)cc1)c1ccc(OCCN(C)C(=O)COCCNC(=O)Cc2ccc3c(c2)CN([C@@H]2CCC(=O)NC2=O)C3=O)cc1)c1ccccc1"
92.1

Return reported growth; argument: "CC/C(=C(/c1ccc(O)cc1)c1ccc(OCCN(C)C(=O)COCCOCCNC(=O)Cc2ccc3c(c2)CN([C@@H]2CCC(=O)NC2=O)C3=O)cc1)c1ccccc1"
105

Cited source: PubChem BioAssay (NCI)
